Below, each entry is listed alongside its reported Ki.
Biological target: KA2 (Rattus norvegicus, UniProt Q63273)
Construct: expressed in transfected cells; host or cells: HEK-293-T/17
Sequence (Q63273 15-979): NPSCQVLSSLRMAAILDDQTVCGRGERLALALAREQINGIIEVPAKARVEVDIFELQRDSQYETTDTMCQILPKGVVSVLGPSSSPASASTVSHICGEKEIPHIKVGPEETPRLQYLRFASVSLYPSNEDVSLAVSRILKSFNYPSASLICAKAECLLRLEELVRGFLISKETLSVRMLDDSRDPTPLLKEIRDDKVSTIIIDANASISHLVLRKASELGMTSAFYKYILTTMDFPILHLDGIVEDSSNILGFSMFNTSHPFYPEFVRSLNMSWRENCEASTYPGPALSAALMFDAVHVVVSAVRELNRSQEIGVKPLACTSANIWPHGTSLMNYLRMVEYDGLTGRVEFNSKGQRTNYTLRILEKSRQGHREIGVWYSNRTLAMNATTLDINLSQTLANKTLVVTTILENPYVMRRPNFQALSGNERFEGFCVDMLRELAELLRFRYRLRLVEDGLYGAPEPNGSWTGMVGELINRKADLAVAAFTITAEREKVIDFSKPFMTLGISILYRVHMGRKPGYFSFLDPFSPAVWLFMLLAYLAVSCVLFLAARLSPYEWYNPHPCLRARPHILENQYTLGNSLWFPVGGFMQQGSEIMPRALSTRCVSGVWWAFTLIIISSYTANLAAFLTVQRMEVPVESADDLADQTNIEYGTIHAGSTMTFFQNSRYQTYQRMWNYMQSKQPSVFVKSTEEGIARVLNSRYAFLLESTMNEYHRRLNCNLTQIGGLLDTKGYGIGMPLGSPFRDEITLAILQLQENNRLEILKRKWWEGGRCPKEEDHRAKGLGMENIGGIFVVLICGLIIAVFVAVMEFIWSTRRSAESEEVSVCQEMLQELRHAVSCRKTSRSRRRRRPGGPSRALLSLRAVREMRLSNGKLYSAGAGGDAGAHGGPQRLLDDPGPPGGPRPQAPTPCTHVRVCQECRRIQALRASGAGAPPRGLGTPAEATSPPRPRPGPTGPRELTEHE
Test: Radioligand displacement ([3H]kainate), Example 1
Type: binding
Conditions: Tables 1-2; read-out: KA2 binding affinity (displacement of [3H]kainate)
Measured parameter: Ki

Compound: NC(CC1(C(=O)O)CC2OCC(O)C(O)C2O1)C(=O)O (stereo not drawn) [8-epi-neoDH, 8-epi-neodysiherbaine]
Tested on: KA2 (Rattus norvegicus, UniProt Q63273)
Experimental result: >100 µM

Compound: NC(CC1(C(=O)O)CC2OCC(O)C(O)C2O1)C(=O)O (stereo not drawn) [8,9-epi-neoDH, 8,9-epi-neodysiherbaine]
Tested on: KA2 (Rattus norvegicus, UniProt Q63273)
Experimental result: >100 µM

Compound: N[C@@H](C[C@]1(C(=O)O)C[C@H]2OCC[C@@H](O)[C@H]2O1)C(=O)O [9-deoxy-neoDH]
Tested on: KA2 (Rattus norvegicus, UniProt Q63273)
Experimental result: > 100 µM

Compound: NC(CC1(C(=O)O)CC2OCC(O)C(O)C2O1)C(=O)O (stereo not drawn) [9-epi-neoDH, 9-epi-neodysiherbaine]
Tested on: KA2 (Rattus norvegicus, UniProt Q63273)
Experimental result: >100 µM

----------
biological target: GluR5-2a (Rattus norvegicus, UniProt P22756, DEL402-416); construct: expressed in transfected cells; host or cells: HEK-293-T/17; assay: Whole-cell patch clamp recordings, transfected HEK-293-T/17 cells, Example 2; type: cell-based
Sequence (P22756 with tags, fused parts or gaps isoform P22756-2 limits assumed, stated change not applied): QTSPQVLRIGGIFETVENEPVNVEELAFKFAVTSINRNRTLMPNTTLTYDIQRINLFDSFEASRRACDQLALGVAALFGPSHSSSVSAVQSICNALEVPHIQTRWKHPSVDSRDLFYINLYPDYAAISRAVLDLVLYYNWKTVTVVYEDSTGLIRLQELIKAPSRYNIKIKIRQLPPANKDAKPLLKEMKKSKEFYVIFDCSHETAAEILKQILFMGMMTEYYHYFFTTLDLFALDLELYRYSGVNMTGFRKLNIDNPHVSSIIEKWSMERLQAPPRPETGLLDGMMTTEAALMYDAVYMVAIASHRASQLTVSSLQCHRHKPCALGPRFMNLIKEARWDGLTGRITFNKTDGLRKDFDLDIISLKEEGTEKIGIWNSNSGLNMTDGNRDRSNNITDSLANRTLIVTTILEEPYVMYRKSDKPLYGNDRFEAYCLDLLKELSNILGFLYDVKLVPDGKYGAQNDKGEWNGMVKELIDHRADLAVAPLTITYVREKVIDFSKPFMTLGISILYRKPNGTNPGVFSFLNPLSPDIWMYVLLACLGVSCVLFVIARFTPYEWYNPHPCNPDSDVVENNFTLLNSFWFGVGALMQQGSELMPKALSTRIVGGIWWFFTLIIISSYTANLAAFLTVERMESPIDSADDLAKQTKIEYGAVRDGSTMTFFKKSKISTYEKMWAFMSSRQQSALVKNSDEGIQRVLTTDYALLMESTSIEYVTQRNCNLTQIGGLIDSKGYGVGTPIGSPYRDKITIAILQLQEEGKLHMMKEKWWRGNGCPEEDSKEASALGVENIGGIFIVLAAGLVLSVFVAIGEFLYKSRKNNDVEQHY
pIC50: −log10 of the molar value.

Molecule: N[C@@H](C[C@]1(C(=O)O)C[C@H]2OC[C@@H](O)C[C@H]2O1)C(=O)O [8-deoxy-neoDH]
Tested on: GluR5-2a (Rattus norvegicus, UniProt P22756, DEL402-416)
pIC50: 9.62
